# measurement-target: Receptor-type tyrosine-protein kinase FLT3 (Homo sapiens)
# measurement-notes: Inhibition of recombinant human N-terminal GST-tagged FLT3 (564 to end residues) expressed by baculovirus in Sf21 insect cells measured after 10 mins in presence of [gamma-33P]ATP by scintillation counter method
readout-label: IC50 (nM)

Cn1nc(C(F)(F)F)cc1NC(=O)Nc1ccc(Oc2ncnc3[nH]ncc23)cc1    38
CC(C)(C)c1cc(NC(=O)Nc2ccc(Oc3ncnc4c3cnn4CCN3CCOCC3)cc2)no1    449
Cn1ncc2c(Oc3ccc(NC(=O)Nc4cc(C(C)(C)C)on4)cc3)ncnc21    27

1: CC(C)(C)c1cc(NC(=O)Nc2ccc(Oc3ncnc4[nH]ncc34)c(Cl)c2)no1
2: CC(C)(C)c1cc(NC(=O)Nc2ccc(Oc3ncnc4[nH]ncc34)cc2)on1
Parameter metric = IC50. Return the lower-valued option from 1 and 2 . Please indicate the selected item by its label. 1

---

# measurement-target: Receptor-type tyrosine-protein kinase FLT3 (Homo sapiens, UniProt P36888)
# Sequence (P36888 whole entry): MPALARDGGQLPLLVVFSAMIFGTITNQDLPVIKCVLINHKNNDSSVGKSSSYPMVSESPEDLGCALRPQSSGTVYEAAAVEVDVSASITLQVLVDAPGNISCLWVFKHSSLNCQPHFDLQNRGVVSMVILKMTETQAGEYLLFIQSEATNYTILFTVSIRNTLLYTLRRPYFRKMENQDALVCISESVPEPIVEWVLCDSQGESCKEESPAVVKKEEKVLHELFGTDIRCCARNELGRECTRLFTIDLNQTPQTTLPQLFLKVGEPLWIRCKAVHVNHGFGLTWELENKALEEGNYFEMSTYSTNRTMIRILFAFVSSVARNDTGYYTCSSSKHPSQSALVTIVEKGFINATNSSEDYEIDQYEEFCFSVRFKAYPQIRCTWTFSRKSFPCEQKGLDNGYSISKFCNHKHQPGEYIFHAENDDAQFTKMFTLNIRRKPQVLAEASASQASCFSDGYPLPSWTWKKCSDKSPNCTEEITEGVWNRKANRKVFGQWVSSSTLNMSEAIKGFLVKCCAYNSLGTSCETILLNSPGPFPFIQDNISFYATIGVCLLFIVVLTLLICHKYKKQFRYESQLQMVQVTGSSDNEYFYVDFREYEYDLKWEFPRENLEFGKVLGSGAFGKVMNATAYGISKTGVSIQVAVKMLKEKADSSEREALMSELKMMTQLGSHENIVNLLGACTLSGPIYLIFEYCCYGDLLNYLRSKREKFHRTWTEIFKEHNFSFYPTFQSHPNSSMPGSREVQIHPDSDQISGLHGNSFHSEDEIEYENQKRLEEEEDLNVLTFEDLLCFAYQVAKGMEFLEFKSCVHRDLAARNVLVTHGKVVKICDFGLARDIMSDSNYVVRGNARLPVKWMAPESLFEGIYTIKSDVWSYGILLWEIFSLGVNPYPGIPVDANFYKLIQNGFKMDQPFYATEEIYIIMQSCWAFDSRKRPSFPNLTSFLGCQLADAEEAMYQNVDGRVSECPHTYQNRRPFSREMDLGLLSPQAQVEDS
# measurement-notes: Inhibition of recombinant human N-terminal GST-tagged FLT3 (564 to end residues) expressed by baculovirus in Sf21 insect cells measured after 10 mins in presence of [gamma-33P]ATP by scintillation counter method
pIC50: −log10 of the molar value.
readout-label: pIC50

Below are worked cases with known answers.
O=C(Nc1ccc(Oc2ncnc3[nH]ncc23)cc1)Nc1nc(-c2ccccc2)cs1    7.14
Cn1nc(C(C)(C)C)cc1NC(=O)Nc1ccc(Oc2ncnc3[nH]ncc23)c(F)c1    7.18
CC(C)(C)c1cc(NC(=O)Nc2ccc(Oc3ncnc4[nH]ncc34)c(F)c2)no1    8.30
CC(C)(C)c1cc(NC(=O)Nc2ccc(Oc3ncnc4[nH]ncc34)c(F)c2)n(-c2ccc(F)cc2)n1    7.38

I: CC(C)(C)c1cc(NC(=O)Nc2ccc(Oc3ncnc4[nH]ncc34)cc2)no1
II: CC(C)(C)c1cc(NC(=O)Nc2ccc(Oc3ncnc4[nH]ncc34)cc2F)no1
Of I and II , which one carries the higher reported pIC50? Please indicate the selected item by its label. II
(II: 8.22, I: 7.96)

---

# measurement-target: Receptor-type tyrosine-protein kinase FLT3 (Homo sapiens)
# measurement-notes: Inhibition of recombinant human N-terminal GST-tagged FLT3 (564 to end residues) expressed by baculovirus in Sf21 insect cells measured after 10 mins in presence of [gamma-33P]ATP by scintillation counter method
pIC50: −log10 of the molar value.
readout-label: pIC50

Below are worked cases with known answers.
CC(C)n1ncc2c(Oc3ccc(NC(=O)Nc4cc(C(C)(C)C)on4)cc3)ncnc21    6.66
CN(C)CCCn1ncc2c(Oc3ccc(NC(=O)Nc4cc(C(C)(C)C)on4)cc3)ncnc21    7.10
O=C(Nc1ccc(Oc2ncnc3[nH]ncc23)cc1)Nc1cc(C(F)(F)F)on1    7.55
CC(C)c1cc(NC(=O)Nc2ccc(Oc3ncnc4[nH]ncc34)cc2)n(C)n1    7.09

1: Cc1cc(Oc2ncnc3[nH]ncc23)ccc1NC(=O)Nc1cc(C(C)(C)C)on1
2: Cc1cc(NC(=O)Nc2cc(C(C)(C)C)on2)ccc1Oc1ncnc2[nH]ncc12
Of 1 and 2 , which one carries the higher reported pIC50? Please indicate the selected item by its label. 2
(2: 8.22, 1: 6.18)

---

# measurement-target: Receptor-type tyrosine-protein kinase FLT3 (Homo sapiens)
# measurement-notes: Inhibition of recombinant human N-terminal GST-tagged FLT3 (564 to end residues) expressed by baculovirus in Sf21 insect cells measured after 10 mins in presence of [gamma-33P]ATP by scintillation counter method
pIC50: −log10 of the molar value.
readout-label: pIC50

CC(C)(C)c1csc(NC(=O)Nc2ccc(Oc3ncnc4[nH]ncc34)cc2)n1    8.10
Cn1nc(C(C)(C)C)cc1NC(=O)Nc1ccc(Oc2ncnc3[nH]ncc23)cc1    7.21
Cn1nc(C(F)(F)F)cc1NC(=O)Nc1ccc(Oc2ncnc3[nH]ncc23)c(F)c1    7.44
CC(C)(C)c1cc(NC(=O)Nc2ccc(Oc3ncnc4[nH]ncc34)cc2)n(C2CCCC2)n1    7.28
CC(C)(C)c1cc(NC(=O)Nc2ccc(Oc3ncnc4[nH]ncc34)c(F)c2)n(-c2ccccc2)n1    7.25
CC(C)(C)c1cc(NC(=O)Nc2ccc(Oc3ncnc4[nH]ncc34)c(F)c2)n(C2CCCC2)n1    7.28

P: CC(C)(C)c1cc(NC(=O)Nc2ccc(Oc3ncnc4[nH]ncc34)cc2)n(-c2ccccc2)n1
Q: CC(C)(C)c1cc(NC(=O)Nc2ccc(Oc3ncnc4[nH]ncc34)cc2)n(C(=O)O)n1
R: O=C(Nc1ccc(Oc2ncnc3[nH]ncc23)cc1)Nc1nc2ccccc2s1
Put the items in order so that reported pIC50 rises from first to last. # list labels per requested ordering R, P, Q
(R: 6.53, P: 7.30, Q: 8.00)
